This section presents molecules with their documented TGI values.
- Test system: MOLT-4 leukemia
- EXPERIMENTAL PROTOCOL: NCI tumour cell line growth inhibition, 48 h
Please respond with the number in µM and leave the unit unwritten.

chemical_structure=O=C(N/N=C/c1cc(Cl)cc(Cl)c1[O-])c1ccccc1O.O=C(N/N=C/c1cc(Cl)cc(Cl)c1[O-])c1ccccc1O.[Mn+2] experimental_endpoint=TGI quantitative_readout=14.8
chemical_structure=COc1cc2c(/C=C3/C(=O)Nc4cc(C)c(O)cc43)c(Cl)[nH]c2cc1C experimental_endpoint=TGI quantitative_readout=0.835

Okay, now this molecule:
State its TGI on MOLT-4 leukemia: NC(=O)c1c(-c2ccccc2)c(-c2ccccc2)cc2c(=O)c3ccccc3[nH]c12
44.7
